# System: human immunodeficiency virus (HIV)
# assay overview: Antiviral activity against HIV in HIV-infected MT-4 cells (MTT method)
# Assay type: cell-based
# assay setup: Table 5
Positions of bridges follow the written chain, without caps; N, C: chain ends. Non-standard residues stand in square brackets, D forms with d. Residues, ends and D or L forms follow the SMILES beside them. dOrn = NCCC[C@@H](N)C(=O)O
assay endpoint: SI (CC50/EC50)
Lab note: jot the number down without any unit.

Bench note: what SI (CC50/EC50) did N=C(N)NCCC[C@H](NC(=O)[C@@H]1CSSC[C@H](NC(=O)[C@H](Cc2c[nH]c3ccccc23)NC(=O)[C@H](CCCNC(=N)N)NC(=O)[C@@H](N)CCCNC(=N)N)C(=O)N[C@@H](Cc2ccc(O)cc2)C(=O)N[C@@H](CCCNC(=N)N)C(=O)N[C@@H](CCCCN)C(=O)N[C@@H](CCCCN)C(=O)NCC(=O)N[C@@H](Cc2ccc(O)cc2)C(=O)N[C@@H](CCCNC(=N)N)C(=O)N[C@@H](CCCCN)C(=O)N1)C(N)=O [Polypeptide (3)] (H-RRWCYRKKGYRKCR-NH2; disulfide 4-13) show? 3477

Query N=C(N)NCCC[C@H](NC(=O)[C@@H]1CSSC[C@H](NC(=O)[C@H](Cc2c[nH]c3ccccc23)NC(=O)[C@H](CCCNC(=N)N)NC(=O)[C@@H](N)CCCNC(=N)N)C(=O)N[C@@H](Cc2ccc(O)cc2)C(=O)N[C@@H](CCCNC(=N)N)C(=O)N[C@@H](CCCCN)C(=O)N[C@H](CCCN)C(=O)N2CCC[C@H]2C(=O)N[C@@H](Cc2ccc(O)cc2)C(=O)N[C@@H](CCCNC(=N)N)C(=O)N[C@@H](CCCCN)C(=O)N1)C(N)=O [Polypeptide (6)] (H-RRWCYRK[dOrn]PYRKCR-NH2; disulfide 4-13) next 2728
